molecular target: human CDH6 with EC1 removed, on HEK293T cells (HEK293T-hCDH6-EC1 deletion) (human) (UniProt P55285); experiment: FACS, HEK293T-hCDH6-EC1 deletion cells
MEASURE: Max MFI (MFI)
One number for each entry, in MFI.

Check out these entries, answers already filled in.
BINDER	Max MFI / MFI
CHI-CDH6-4 (antibody, human IgG1, kappa, V domains shown) VH: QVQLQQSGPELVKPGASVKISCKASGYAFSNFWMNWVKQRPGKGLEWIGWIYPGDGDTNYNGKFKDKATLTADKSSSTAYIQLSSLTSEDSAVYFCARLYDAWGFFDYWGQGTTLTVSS VL: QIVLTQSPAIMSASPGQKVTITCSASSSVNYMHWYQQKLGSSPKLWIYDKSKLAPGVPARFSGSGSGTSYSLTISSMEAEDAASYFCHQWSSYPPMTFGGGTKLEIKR	10200
CHI-CDH6-3 (antibody, human IgG1, kappa, V domains shown) VH: QVQLQQPGAELVKPGASVKLSCKASGYTFTSYWIHWVKQRPGQGLEWIGEINPSNGVTNCNENFKSKATLTVDKSSSTAYMQLSSLTSEDSAVYYCTIPNLLWWYFDVWGAGTTVTVSS VL: DIQMTQSPASLSVSVGETVTITCRASENIYSNLAWYQQKQGKSPQLLVYEATNLADGVPSRFSGSGSGTQYSLKINSLQSEDFGSYYCQHFWGTLWTFGGGTKLEIKR	11100
CHI-CDH6-5 (antibody, human IgG1, kappa, V domains shown) VH: QVQLQQSGAELVRPGTSVKMSCKAAEYTFTNYWIGWVKQRPGHGLEWIGDLYPGGDHANYNEKFEGKATLTADTSSSTAYMQLSSLTSEDSAIYYCARGMLTTGFDSWGQGTTLTVSS VL: DIVMSQSPSSLAVSAGEKVTMSCKSSQSLFNSRTRKNYLAWYQQKPGQSPKLLIYWASTRESGVPDRFTGSGSGTDFTLTISSVQAEDLAVYYCKQSYYLRTFGGGTKLEIKR	112

Now look at this one.
Name the recorded Max MFI of the item DS-H01L02 (antibody, human IgG1, kappa, V domains shown) VH: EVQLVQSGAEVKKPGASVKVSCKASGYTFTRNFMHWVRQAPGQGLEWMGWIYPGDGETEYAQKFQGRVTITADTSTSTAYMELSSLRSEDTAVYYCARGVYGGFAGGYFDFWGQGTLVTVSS VL: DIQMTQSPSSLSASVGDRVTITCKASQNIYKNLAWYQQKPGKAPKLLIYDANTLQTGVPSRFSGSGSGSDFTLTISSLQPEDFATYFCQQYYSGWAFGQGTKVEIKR in your answer. 5290
